- System: PPARg homodimer (NR concentration 180 nM)
- method summary: PBM binding z-score (relative to random genomic background probes); higher = stronger binding; sequences stand for … in GC…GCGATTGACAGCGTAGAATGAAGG
Please map values of PBM binding z-score to classes as shown: LOW: < 0.4; MEDIUM: ≥ 0.4 and < 2; HIGH: ≥ 2

residue codes | group
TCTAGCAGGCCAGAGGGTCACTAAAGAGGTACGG | MEDIUM
TCTTGTAGATCAAAGTTTAAGAAAGCCGAAGCCT | LOW
GCTCCTAGGTCAGGTTGGTCAGCTAACGGGTACG | MEDIUM
CGAACTAGGTCAAGGACAGTGAGTCTCCGCACGC | MEDIUM
CGTCCAAGGTCAAGGTCAGCGAAAGAGACTCGAA | HIGH
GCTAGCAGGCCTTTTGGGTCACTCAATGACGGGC | LOW
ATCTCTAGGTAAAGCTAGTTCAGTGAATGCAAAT | LOW
TCTAGTTGGTCACGGAGGTCAAACACGACGGGTA | HIGH
AGTTAAAGTTCATCTAGGTAACGTAAGATATGCT | HIGH
ACTAGCAGTCCAAGGGTCACTCAAGATTAGTCCG | MEDIUM
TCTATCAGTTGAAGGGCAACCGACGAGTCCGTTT | MEDIUM
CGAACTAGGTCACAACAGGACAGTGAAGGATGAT | MEDIUM

* * *

- System: PPARg:RXRa DBDmut IVT, anti-RXR (DBD mutation: RXRa K156A/R161A, NR concentration 270 nM, RXRa partner concentration 90 nM)
- method summary: PBM binding z-score (relative to random genomic background probes); higher = stronger binding; sequences stand for … in GC…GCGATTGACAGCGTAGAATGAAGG
Tick Yes if PBM binding z-score is 2 or greater. Tick No if PBM binding z-score is less than 2.

residue codes | group
ACTATTAGTTGAGACGAGGGCAACAGATAGGTTG | No
TGAATGCGGTTAAAGATCAGGGAACGTGGCGTCG | No
TAGCCAAGGTCATTGGGCCAGTATAGTACGCATC | Yes
CCTAGCAGGCGAATCTGGGTCACTCAAGGCTTGA | Yes
AGAATGAGGTTATACGTGGATCAGGGAAGAAAGT | Yes

* * *

- Tested on: RARa:RXR (NR concentration 270 nM, RXRa partner concentration 90 nM)
- method summary: PBM binding z-score (relative to random genomic background probes); higher = stronger binding; sequences stand for … in GC…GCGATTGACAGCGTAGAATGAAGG
Assign a class from recorded PBM binding z-score; defined classes: lower segment: < 0.4; middle segment: ≥ 0.4 and < 3; upper segment: ≥ 3

residue codes | group
TCGAGTAGGTTACCAATGGGGCGTTCAGCTTTCT | lower segment
TCTATTAGTTGAAGGACAACCGACGAGTCCGTTT | middle segment
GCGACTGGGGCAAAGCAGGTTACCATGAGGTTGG | lower segment
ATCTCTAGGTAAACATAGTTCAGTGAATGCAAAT | middle segment
CTACCAAGGTGAACAAGGACGTTGATTACTATTC | middle segment
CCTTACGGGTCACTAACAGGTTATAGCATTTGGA | upper segment
GCGACTGGGGCATCAGCGGGTTACCATAACTTAA | lower segment
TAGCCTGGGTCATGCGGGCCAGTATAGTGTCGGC | middle segment
CGTCCAAGGTCAGAGAGGGCAGTGAATGCCGAGT | upper segment
GCTGCTAGGTCAACTGATGGTCAGCTACAGCTCG | middle segment
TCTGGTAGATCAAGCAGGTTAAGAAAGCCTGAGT | lower segment
AATACAGGGTCACTAGGCCATAGTAGGTACGAAT | upper segment

* * *

- Test system: VDR homodimer (NR concentration 270 nM)
- method summary: PBM binding z-score (relative to random genomic background probes); higher = stronger binding; sequences stand for … in GC…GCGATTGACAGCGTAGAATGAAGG
Hi, to clarify the labels: true covers PBM binding z-score from 0.01 upward, false covers anything below 0.01.

residue codes | measurement target | group
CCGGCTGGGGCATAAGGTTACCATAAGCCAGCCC | VDR homodimer (NR concentration 270 nM) | false
ATCTCTAGGTAACCAAGTTCAGTGTATGCCGAAC | VDR homodimer (NR concentration 270 nM) | true
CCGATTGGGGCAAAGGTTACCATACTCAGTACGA | VDR homodimer (NR concentration 270 nM) | true
TCAGACAGGTGAAGGTAACCCAGGTACGCAGTCG | VDR homodimer (NR concentration 270 nM) | true
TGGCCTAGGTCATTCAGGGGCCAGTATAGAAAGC | VDR homodimer (NR concentration 270 nM) | true
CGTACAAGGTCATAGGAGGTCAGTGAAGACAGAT | VDR homodimer (NR concentration 270 nM) | true
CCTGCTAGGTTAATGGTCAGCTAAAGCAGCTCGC | VDR homodimer (NR concentration 270 nM) | false
AGTATTAGTTGAGACGAGGGCAACCGATAGGTTG | VDR homodimer (NR concentration 270 nM) | true
CAAACAGGGTCAGCTAGGCCAGAGTAGGGACGGC | VDR homodimer (NR concentration 270 nM) | true
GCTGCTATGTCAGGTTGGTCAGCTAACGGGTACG | VDR homodimer (NR concentration 270 nM) | false
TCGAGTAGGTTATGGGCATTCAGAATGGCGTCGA | VDR homodimer (NR concentration 270 nM) | false
ACTAGCACGCCAAGTTTGGGTCACTCAAACAAAG | VDR homodimer (NR concentration 270 nM) | false

* * *

- Test system: RXRa DBDmut IVT, anti-RXR (DBD mutation: RXRa K156A/R161A, NR concentration 90 nM)
- method summary: PBM binding z-score (relative to random genomic background probes); higher = stronger binding; sequences stand for … in GC…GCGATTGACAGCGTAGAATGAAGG
Collected PBM binding z-score values appear next to each entry.
reported endpoint: PBM binding z-score

residue codes | measurement target | obs value
TTACCAATGTGAGCTGAGGTCGTTGATCCAACTC | RXRa DBDmut IVT, anti-RXR (DBD mutation: RXRa K156A/R161A, NR concentration 90 nM) | 0.122
TCATATAGGTAATCCAGGTGAAAGTCGGCATCTA | RXRa DBDmut IVT, anti-RXR (DBD mutation: RXRa K156A/R161A, NR concentration 90 nM) | 1.5
GGAACGAGGGCAACGTTGATAGCATCTGTCGACG | RXRa DBDmut IVT, anti-RXR (DBD mutation: RXRa K156A/R161A, NR concentration 90 nM) | 1.56
TTACCAGGGTGAAAGGTCGTTGATGCACGCCTTG | RXRa DBDmut IVT, anti-RXR (DBD mutation: RXRa K156A/R161A, NR concentration 90 nM) | 0.566
CTCGAACGGTCGGTTGAGGTGAGTATACGGATAA | RXRa DBDmut IVT, anti-RXR (DBD mutation: RXRa K156A/R161A, NR concentration 90 nM) | -0.356
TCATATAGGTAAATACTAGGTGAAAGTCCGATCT | RXRa DBDmut IVT, anti-RXR (DBD mutation: RXRa K156A/R161A, NR concentration 90 nM) | 1.89
CCTAGCAGGCCAATCTCGGTCACTCAAGGCTTGA | RXRa DBDmut IVT, anti-RXR (DBD mutation: RXRa K156A/R161A, NR concentration 90 nM) | 0.398
GGAACGAGGGCATTCGACTTGATAGCATGGCGAT | RXRa DBDmut IVT, anti-RXR (DBD mutation: RXRa K156A/R161A, NR concentration 90 nM) | 3.17
TCATGTAGATCAACAGGAGGTTAAGAAAGATCGA | RXRa DBDmut IVT, anti-RXR (DBD mutation: RXRa K156A/R161A, NR concentration 90 nM) | 0.621
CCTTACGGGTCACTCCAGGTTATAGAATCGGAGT | RXRa DBDmut IVT, anti-RXR (DBD mutation: RXRa K156A/R161A, NR concentration 90 nM) | 1.91
CGAACTACGTCATTGACAGGACAGTGAATAGTAA | RXRa DBDmut IVT, anti-RXR (DBD mutation: RXRa K156A/R161A, NR concentration 90 nM) | 0.0473
AGTCAAAGTTTAGGACGAGGTAACGTAAAGCACG | RXRa DBDmut IVT, anti-RXR (DBD mutation: RXRa K156A/R161A, NR concentration 90 nM) | 0.5

* * *

- System: PPARg:RXRa 90nM:30nM, anti-RXR (NR concentration 90 nM, RXRa partner concentration 30 nM)
- method summary: PBM binding z-score (relative to random genomic background probes); higher = stronger binding; sequences stand for … in GC…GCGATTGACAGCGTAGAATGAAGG
Record true (1) whenever PBM binding z-score is at 3 or higher; record false (0) when lower.

residue codes | group
ATACCTAGGTGATCGTGAGGTCGTTGATACTAAC | false (0)
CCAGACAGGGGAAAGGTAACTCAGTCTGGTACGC | true (1)
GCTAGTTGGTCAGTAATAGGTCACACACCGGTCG | false (0)
TTACCAAGGCGAAAGGTCGTTGATGCACGCCTTG | true (1)
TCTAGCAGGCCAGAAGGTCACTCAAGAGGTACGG | false (0)
TTACCAAGGAGAAAGGTCGTTGATGCACGCCTTG | true (1)
CGTCCAAGGTCATCGGAGGTCAGTGAAGACAGAT | true (1)
TGAATGAGGTTAAAGATCAGGGGACGTGGCGTCG | true (1)
CTCGAAAGGCCGGTTGAGGTGAGTATACGGATAA | false (0)
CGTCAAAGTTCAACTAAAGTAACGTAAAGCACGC | true (1)
ATCTCTAGGTAATCAAGTTCAGTGAATGCCGAAC | false (0)
CAAACTAGGACAAGGTCAAAGTCGGTTTGTGCCA | true (1)
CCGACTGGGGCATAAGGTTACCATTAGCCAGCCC | false (0)
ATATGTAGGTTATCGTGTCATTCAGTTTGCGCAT | true (1)
TCGAGTAGGTTAGGGGCATTCGGAATGGCGTCGA | false (0)
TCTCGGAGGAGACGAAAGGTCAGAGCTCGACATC | true (1)
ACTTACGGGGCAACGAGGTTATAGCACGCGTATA | false (0)
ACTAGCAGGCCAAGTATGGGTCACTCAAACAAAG | false (0)
ATATGTAGGTTAAGTGTCATTCAGGTTGGTTCGC | true (1)
TAGCCTAGGTCATTGGGCCTGTATAGTACGCATC | false (0)
